EXPERIMENTAL_SYSTEM: Histone deacetylase 8 (Homo sapiens)
Sequence (Q9BY41 whole entry, the tested form may be a part): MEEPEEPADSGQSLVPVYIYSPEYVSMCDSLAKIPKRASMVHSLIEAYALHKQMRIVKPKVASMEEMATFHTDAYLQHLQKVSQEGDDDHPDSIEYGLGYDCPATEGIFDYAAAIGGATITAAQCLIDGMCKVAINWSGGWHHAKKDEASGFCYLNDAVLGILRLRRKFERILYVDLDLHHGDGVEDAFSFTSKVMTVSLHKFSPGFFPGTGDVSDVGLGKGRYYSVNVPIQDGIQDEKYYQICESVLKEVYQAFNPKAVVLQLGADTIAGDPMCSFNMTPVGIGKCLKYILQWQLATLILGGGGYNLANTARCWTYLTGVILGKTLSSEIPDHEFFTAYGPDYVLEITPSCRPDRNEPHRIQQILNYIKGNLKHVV
EXPERIMENT_DESCRIPTION: Inhibition of recombinant C-terminal His-tagged and N-terminal Streptavidin2-tagged human HDAC8 (1 to 377 residues) expressed in baculovirus infected insect cells using RHK-K(Ac)-AMC as substrate after 60 mins by fluorescence assay
PROPERTY_NAME: pIC50
Keep in mind that pIC50 stands for -log10 of concentration in molar terms.

In the examples that follow, each entry is paired with its recorded pIC50.
| SMILES_NOTATION | EXPERIMENTAL_SYSTEM | PROPERTY_NAME | NUMERIC_RESULT |
| --- | --- | --- | --- |
| O=C(NO)c1ccc(C(=O)NCCCN2c3ccccc3CCc3ccc(Cl)cc32)cc1 | Histone deacetylase 8 (Homo sapiens) | pIC50 | 5.75 |
| O=C(/C=C/c1ccc(S(=O)(=O)NCCCN2c3ccccc3CCc3ccc(Cl)cc32)cc1)NO | Histone deacetylase 8 (Homo sapiens) | pIC50 | 6.06 |
| O=C(CCCCC(=O)NCCCN1c2ccccc2CCc2ccc(Cl)cc21)NO | Histone deacetylase 8 (Homo sapiens) | pIC50 | 5.51 |
| O=C(CCCCCCC(=O)NCCCN1c2ccccc2CCc2ccc(Cl)cc21)NO | Histone deacetylase 8 (Homo sapiens) | pIC50 | 5.63 |
| O=C(NO)c1ccc(CNCCCN2c3ccccc3CCc3ccc(Cl)cc32)cc1 | Histone deacetylase 8 (Homo sapiens) | pIC50 | 5.82 |

Dear colleague, please send me the reported pIC50 for `O=C(CCCCCCCC(=O)NCCCN1c2ccccc2CCc2ccc(Cl)cc21)NO` when you can.
5.97
